test: Log D measurement (n-octanol/PBS shake, LC-MS/MS); assay type: physicochemical; conditions: pH 7.4, read-out: LogD7.4 (Oct/buff)
Here, each record is paired with measured logD data.

CCCCCC(=O)OCCN(C)C(=O)n1ccc2c(N(C)[C@H]3CN(C(=O)CC#N)CC[C@H]3C)ncnc21
1.69
CCC(C)C(=O)OCCN(C)C(=O)n1ccc2c(N(C)[C@H]3CN(C(=O)CC#N)CC[C@H]3C)ncnc21 (stereo partly shown)
1.87

Suppose we examine the compound `CCC(CC)C(=O)OCCN(C)C(=O)n1ccc2c(N(C)[C@H]3CN(C(=O)CC#N)CC[C@H]3C)ncnc21` ; what logD value has been reported?
2.07

Try this compound next: CCCC(CC)C(=O)OCCN(C)C(=O)n1ccc2c(N(C)[C@H]3CN(C(=O)CC#N)CC[C@H]3C)ncnc21 (stereo partly shown)
2.72

Another compound: `C[C@@H]1CCN(C(=O)CC#N)C[C@@H]1N(C)c1ncnc2c1ccn2C(=O)N(C)CCOC(=O)C1CCC1`
2.35

Let us now turn to `C[C@@H]1CCN(C(=O)CC#N)C[C@@H]1N(C)c1ncnc2c1ccn2C(=O)N(C)CCOC(=O)C1CCCC1`
1.95

Repeat with C[C@@H]1CCN(C(=O)CC#N)C[C@@H]1N(C)c1ncnc2c1ccn2C(=O)N(C)CCOC(=O)C1CCOC1 (stereo partly shown)
0.56
